- method-notes: pKa determination, conventional UV spectrophotometer method
- Type: physicochemical
- setup-conditions: aqueous buffer, pH 7.52, target pH 7.6, actual pH 7.52; 20 µg/mL; 248 nm; read-out: pKa
attribute-measured: pKa
Answer field: number only, no words.

# input Requested field: pKa. Item: CC[C@@H]1CN2CCc3c([nH]c4cccc(OC)c34)[C@@H]2C[C@@H]1/C(=C\OC)C(=O)OC [mitragynine]
# output 8.02

###

- method-notes: pKa determination, conventional UV spectrophotometer method
- Type: physicochemical
- setup-conditions: aqueous buffer, pH 8.71, target pH 8.8, actual pH 8.71; 20 µg/mL; 248 nm; read-out: pKa
attribute-measured: pKa
Answer field: number only, no words.

# input Requested field: pKa. Item: CC[C@@H]1CN2CCc3c([nH]c4cccc(OC)c34)[C@@H]2C[C@@H]1/C(=C\OC)C(=O)OC
# output 8.27

###

- method-notes: pKa determination, conventional UV spectrophotometer method
- Assay type: physicochemical
- setup-conditions: aqueous buffer, pH 8.92, target pH 9.0, actual pH 8.92; 20 µg/mL; 248 nm; read-out: pKa
attribute-measured: pKa

# input Requested field: pKa. Item: CC[C@@H]1CN2CCc3c([nH]c4cccc(OC)c34)[C@@H]2C[C@@H]1/C(=C\OC)C(=O)OC
# output 7.93

###

- method-notes: pKa determination, microplate spectrophotometer method
- Assay type: physicochemical
- setup-conditions: aqueous buffer, pH 8.32, target pH 8.4, actual pH 8.32; 5 µg/mL; 248 nm; read-out: pKa
attribute-measured: pKa

# input Requested field: pKa. Item: CC[C@@H]1CN2CCc3c([nH]c4cccc(OC)c34)[C@@H]2C[C@@H]1/C(=C\OC)C(=O)OC
# output 8.1

###

- method-notes: pKa determination, conventional UV spectrophotometer method
- Type: physicochemical
- setup-conditions: aqueous buffer, pH 8.45, target pH 8.6, actual pH 8.45; 20 µg/mL; 248 nm; read-out: pKa
attribute-measured: pKa
Answer field: number only, no words.

# input Requested field: pKa. Item: CC[C@@H]1CN2CCc3c([nH]c4cccc(OC)c34)[C@@H]2C[C@@H]1/C(=C\OC)C(=O)OC [mitragynine]
# output 8.05

###

- method-notes: pKa determination, microplate spectrophotometer method
- Format: physicochemical
- setup-conditions: aqueous buffer, pH 8.66, target pH 8.8, actual pH 8.66; 5 µg/mL; 248 nm; read-out: pKa
attribute-measured: pKa
Answer field: number only, no words.

# input Requested field: pKa. Item: CC[C@@H]1CN2CCc3c([nH]c4cccc(OC)c34)[C@@H]2C[C@@H]1/C(=C\OC)C(=O)OC
# output 8.15

###

- method-notes: Equilibrium solubility in water and buffers (HPLC-UV)
- Assay type: physicochemical
- setup-conditions: aqueous buffer, thermodynamic from solid, buffer pH 9, 37 °C
attribute-measured: solubility at 48 h

# input Requested field: solubility at 48 h. Item: CC[C@@H]1CN2CCc3c([nH]c4cccc(OC)c34)[C@@H]2C[C@@H]1/C(=C\OC)C(=O)OC
# output 18.7 µg/mL

###

- method-notes: pKa determination, microplate spectrophotometer method
- Assay type: physicochemical
- setup-conditions: aqueous buffer, Microplate Spectrophotometer, Day 3; read-out: pKa, interday repeatability
- Procedure: The instruments employed were UV spectrophotometer 8453 UV-Vis Diode Array (Agilent, Santa Clara, CA, USA), and Multiskan* GO Microplate Spectrophotometer (Thermo Scientific, Waltham, MA, USA). […] Stock solution of mitragynine at 0.5 mg/mL was prepared in acetonitrile. […] The pKa was calculated with equation pKa = pH + log (d − dm/di − d), for basic compound, where di is the absorbance of the ionised species, d is the absorbance of the solution tested and dm is the absorbance of the neutral species.
attribute-measured: pKa
Answer field: number only, no words.

# input Requested field: pKa. Item: CC[C@@H]1CN2CCc3c([nH]c4cccc(OC)c34)[C@@H]2C[C@@H]1/C(=C\OC)C(=O)OC
# output 8.12

###

- method-notes: pKa determination, conventional UV spectrophotometer method
- Type: physicochemical
- setup-conditions: aqueous buffer, UV Spectrophotometer, Day 3; read-out: pKa, interday repeatability
attribute-measured: pKa
Answer field: number only, no words.

# input Requested field: pKa. Item: CC[C@@H]1CN2CCc3c([nH]c4cccc(OC)c34)[C@@H]2C[C@@H]1/C(=C\OC)C(=O)OC [mitragynine]
# output 8.15

###

- method-notes: pKa determination, conventional UV spectrophotometer method
- Assay type: physicochemical
- setup-conditions: aqueous buffer, pH 7.78, target pH 7.8, actual pH 7.78; 20 µg/mL; 248 nm; read-out: pKa
- Description: The instruments employed were UV spectrophotometer 8453 UV-Vis Diode Array (Agilent, Santa Clara, CA, USA), and Multiskan* GO Microplate Spectrophotometer (Thermo Scientific, Waltham, MA, USA). […] Stock solution of mitragynine at 0.5 mg/mL was prepared in acetonitrile. […] The pKa was calculated with equation pKa = pH + log (d − dm/di − d), for basic compound, where di is the absorbance of the ionised species, d is the absorbance of the solution tested and dm is the absorbance of the neutral species.
attribute-measured: pKa
Answer field: number only, no words.

# input Requested field: pKa. Item: CC[C@@H]1CN2CCc3c([nH]c4cccc(OC)c34)[C@@H]2C[C@@H]1/C(=C\OC)C(=O)OC [mitragynine]
# output 8.16

###

- method-notes: Equilibrium solubility in water and buffers (HPLC-UV)
- Assay type: physicochemical
- setup-conditions: aqueous buffer, thermodynamic from solid, buffer pH 4, 37 °C
attribute-measured: solubility at 48 h (µg/mL)
# value in µg/mL; strip the unit string

# input Requested field: solubility at 48 h. Item: CC[C@@H]1CN2CCc3c([nH]c4cccc(OC)c34)[C@@H]2C[C@@H]1/C(=C\OC)C(=O)OC [mitragynine]
# output 3500

###

- method-notes: pKa determination, conventional UV spectrophotometer method
- Type: physicochemical
- setup-conditions: aqueous buffer, UV Spectrophotometer, Day 2; read-out: pKa, interday repeatability
attribute-measured: pKa

# input Requested field: pKa. Item: CC[C@@H]1CN2CCc3c([nH]c4cccc(OC)c34)[C@@H]2C[C@@H]1/C(=C\OC)C(=O)OC
# output 8.11

###

- method-notes: pKa determination, microplate spectrophotometer method
- Assay type: physicochemical
- setup-conditions: aqueous buffer, pH 8.15, target pH 8.2, actual pH 8.15; 5 µg/mL; 248 nm; read-out: pKa
attribute-measured: pKa

# input Requested field: pKa. Item: CC[C@@H]1CN2CCc3c([nH]c4cccc(OC)c34)[C@@H]2C[C@@H]1/C(=C\OC)C(=O)OC [mitragynine]
# output 8.09

###

- method-notes: pKa determination, microplate spectrophotometer method
- Type: physicochemical
- setup-conditions: aqueous buffer, Microplate Spectrophotometer, Day 1; read-out: pKa, interday repeatability
attribute-measured: pKa
Answer field: number only, no words.

# input Requested field: pKa. Item: CC[C@@H]1CN2CCc3c([nH]c4cccc(OC)c34)[C@@H]2C[C@@H]1/C(=C\OC)C(=O)OC
# output 8.18

###

- method-notes: Equilibrium solubility in water and buffers (HPLC-UV)
- Assay type: physicochemical
- setup-conditions: aqueous buffer, thermodynamic from solid, buffer pH 7, 37 °C
attribute-measured: solubility at 48 h (µg/mL)
# value in µg/mL; strip the unit string

# input Requested field: solubility at 48 h. Item: CC[C@@H]1CN2CCc3c([nH]c4cccc(OC)c34)[C@@H]2C[C@@H]1/C(=C\OC)C(=O)OC
# output 88.9

###

- method-notes: n-octanol/water partition coefficient (logP, logD)
- Type: physicochemical
- setup-conditions: n-octanol/buffer pH 9, pH 9; read-out: Calculated n-octanol/water partition coefficient (logD)
attribute-measured: logD
Answer field: number only, no words.

# input Requested field: logD. Item: CC[C@@H]1CN2CCc3c([nH]c4cccc(OC)c34)[C@@H]2C[C@@H]1/C(=C\OC)C(=O)OC
# output 1.56

###

- method-notes: pKa determination, conventional UV spectrophotometer method
- Type: physicochemical
- setup-conditions: aqueous buffer, pH 7.96, target pH 8.0, actual pH 7.96; 20 µg/mL; 248 nm; read-out: pKa
attribute-measured: pKa
Answer field: number only, no words.

# input Requested field: pKa. Item: CC[C@@H]1CN2CCc3c([nH]c4cccc(OC)c34)[C@@H]2C[C@@H]1/C(=C\OC)C(=O)OC
# output 8.17

###

- method-notes: pKa determination, conventional UV spectrophotometer method
- Type: physicochemical
- setup-conditions: aqueous buffer, pH 8.13, target pH 8.2, actual pH 8.13; 20 µg/mL; 248 nm; read-out: pKa
attribute-measured: pKa

# input Requested field: pKa. Item: CC[C@@H]1CN2CCc3c([nH]c4cccc(OC)c34)[C@@H]2C[C@@H]1/C(=C\OC)C(=O)OC [mitragynine]
# output 8.18
